# Tested on: C. elegans
# experiment_summary: microbe, parasite or virus in culture
# measurement_context: Caenorhabditis elegans, 0 h, read-out: Percentage of motility inhibition 0 h, Table S2, C. elegans SS assay, 110 μM, 0 h, averages of 4 data points
quantity_name: inhibition at 110 µM (%)

molecule	reported_result
Cc1ncc([N+](=O)[O-])n1CC(O)CCl (stereo not drawn)	8
CCc1cc(C(N)=S)ccn1 [Ethionamide]	64
Oc1ccc(Cl)cc1Cc1cc(Cl)ccc1O	15

====

# Test system: C. elegans
# experiment_summary: microbe, parasite or virus in culture
# measurement_context: Caenorhabditis elegans, 0 h, read-out: Percentage of motility inhibition 0 h, Table S2, C. elegans SS assay, 110 μM, 0 h, averages of 4 data points

compound	inhibition at 110 µM [%]
c1ccc(-c2ccc(C(c3ccccc3)n3ccnc3)cc2)cc1 (centres unmarked)	25
C=C(C)[C@H](CC=C(C)C)Cc1c(O)cc(O)c2c1O[C@H](c1ccccc1O)CC2=O	14
CC1=C2C(=O)O[C@@H](c3ccoc3)[C@]2(C)CCC1	0
NC(=O)c1ncn([C@@H]2O[C@H](CO)[C@@H](O)[C@H]2O)c1O	28
CC(C1CC1)C(O)(Cn1cncn1)c1ccc(Cl)cc1 (centres unmarked)	42

====

# Tested on: C. elegans
# experiment_summary: microbe, parasite or virus in culture
# measurement_context: Caenorhabditis elegans, 0 h, read-out: Percentage of motility inhibition 0 h, Table S2, C. elegans SS assay, 110 μM, 0 h, averages of 4 data points

compound	study_target	units_of_measure	inhibition at 110 µM
CC(C)=CCc1c(-c2ccc(O)cc2O)oc2c3c(cc(O)c2c1=O)OC(C)(C)C=C3 [Morusin]	C. elegans	%	33
Cc1ccc2c(Cl)cc(Cl)c(O)c2n1 [Chlorquinaldol]	C. elegans	%	19
COc1ccc(O)cc1 [Mequinol]	C. elegans	%	16
CC1=CC(=O)CC(C)(C)[C@@]1(O)/C=C/C(C)=C\C(=O)O [Abscisic acid]	C. elegans	%	0
C[C@@H]1CN(c2c(F)c(N)c3c(=O)c(C(=O)O)cn(C4CC4)c3c2F)C[C@H](C)N1 [Sparfloxacin]	C. elegans	%	37
Nc1ncnc2c1ncn2[C@@H]1O[C@H](CO)[C@@H](O)[C@H]1O [Adenosine]	C. elegans	%	0
CC1=C2C(=O)[C@H]3[C@@H](CC=C4C[C@@H](O)CC[C@@]43C)[C@@H]2CC[C@]12O[C@@H]1C[C@H](C)CN[C@H]1[C@H]2C [Jervine]	C. elegans	%	0
CCCCCCCCCCCCCCCCO [1-Hexadecanol]	C. elegans	%	17
Cc1cc(C2CCCCC2)n(O)c(=O)c1 [Ciclopirox]	C. elegans	%	42
C=C(C)[C@@H]1CC[C@]2(C)CC[C@]3(C)[C@H](CC[C@@H]4[C@@]5(C)CCC(=O)C(C)(C)[C@@H]5CC[C@]43C)[C@@H]12 [Lupenone]	C. elegans	%	25
C=C(C)[C@@H]1CC[C@]2(C(=O)O)CC[C@]3(C)[C@H](CC[C@@H]4[C@@]5(C)CC[C@H](OC(=O)CC(C)(C)C(=O)O)C(C)(C)[C@@H]5CC[C@]43C)[C@@H]12 [Bevirimat]	C. elegans	%	3
C/C1=C\CC[C@]23O[C@H]2[C@@H](OC3=O)c2c(C)coc2C1 [Linderane]	C. elegans	%	5
C=C(C)[C@@H](CC=C(C)C)C[C@@]12C[C@@H](CC=C(C)C)C(C)(C)[C@@](CC=C(C)C)(C(=O)C(C(=O)c3ccc(O)c(O)c3)=C1O)C2=O [Garcinol]	C. elegans	%	8
C=C(C)[C@@H]1CC[C@]2(COC(C)=O)CC[C@]3(C)[C@H](CC[C@@H]4[C@@]5(C)CC[C@H](OC(C)=O)C(C)(C)[C@@H]5CC[C@]43C)[C@@H]12 [Betulin diacetate]	C. elegans	%	11
CC(=O)O[C@]1(C(C)=O)CC[C@H]2[C@@H]3C[C@H](C)C4=CC(=O)CC[C@]4(C)[C@H]3CC[C@@]21C [Medroxyprogesterone acetate]	C. elegans	%	11
CC(=O)O[C@H]1C(=O)[C@@]2(C)[C@H]([C@H](OC(=O)c3ccccc3)[C@]3(O)C[C@H](O)C(C)=C1C3(C)C)[C@]1(OC(C)=O)CO[C@@H]1C[C@@H]2O [Baccatin III]	C. elegans	%	0
COc1cc(-c2cc(=O)c3c(O)cc(O)cc3o2)ccc1O [Chrysoeriol]	C. elegans	%	18
C/C(=C\C(=O)CC(C)C(=O)O)[C@H]1C[C@H](O)[C@@]2(C)C3=C(C(=O)C[C@]12C)[C@@]1(C)CCC(=O)C(C)(C)[C@@H]1C[C@@H]3O (stereo partly shown) [Ganoderenic acid A]	C. elegans	%	0
COc1cc(OC)cc(OC)c1 [1,3,5‐Trimethoxybenzene]	C. elegans	%	1
